- System: Fibroblast
- procedure text: Multiplex assay against human fibroblast
- Assay type: toxicity, cell-based
- measurement setup: 12 h, 10 µM, compound concentration 10 uM, replicate 2
I'd be grateful if you could share measured Population Healthy Nuclei (%) for these entries.
A number alone suffices; assume %.

q: Returns the measured Population Healthy Nuclei (%) for the input compound. Input: COC(=N)c1nc2ccc3ncnc(Nc4ccc(OC)cc4F)c3c2s1
a: 35

q: Returns the measured Population Healthy Nuclei (%) for the input compound. Input: O=C(Nc1ccc(-c2ccnc(Nc3ccc(N4CCOCC4)cc3)n2)cc1)[C@@H]1CCCN1
a: 77

q: Fill in: Population Healthy Nuclei (%) of O=C(Cc1ccc(-c2ccc(OCCN3CCOCC3)cc2)cn1)NCc1ccccc1 [TIRBANIBULIN] is ___
a: 78

q: Can you share its Population Healthy Nuclei (%)? I mean this compound: Cc1cn(-c2cc(NC(=O)c3ccc(C)c(Nc4nccc(-c5cccnc5)n4)c3)cc(C(F)(F)F)c2)cn1 [NILOTINIB]
a: 72

q: Endpoint output: Population Healthy Nuclei (%) of CCn1cc(-c2ccnc3[nH]c(-c4cccc(CN(C)C)c4)cc23)c(-c2ccc(NC(=O)N(C)C)cc2)n1 [GSK-1070916] . Value?
a: 35

q: Please give the measured Population Healthy Nuclei (%) for this compound: Cc1ccc2nc(NCCN)c3ncc(C)n3c2c1.O=C(O)C(F)(F)F.O=C(O)C(F)(F)F
a: 26

q: Given the entry COc1cc(N2CCN(C)CC2)ccc1Nc1ncc2c(n1)N(C)c1ccccc1C(=O)N2C , report its measured Population Healthy Nuclei (%).
a: 61

q: What does the record list as Population Healthy Nuclei (%) for O=C1N/C(=N/c2ccccc2F)S/C1=C\c1ccc(C(=O)O)cc1 ?
a: 81

q: So what does the record say about Population Healthy Nuclei (%) for CCN1CCN(c2ccc(Nc3cc(N(C)C(=O)Nc4c(Cl)c(OC)cc(OC)c4Cl)ncn3)cc2)CC1 [INFIGRATINIB] ?
a: 26

q: Bench note: what Population Healthy Nuclei (%) did Cc1cc(C)c(S(=O)(=O)N(Cc2ccc(-c3cccc(S(C)(=O)=O)c3)cc2)Cc2ccc(C(F)(F)F)o2)c(C)c1 show?
a: 77

q: # get_value(readout='Population Healthy Nuclei (%)', item= COc1ccc(S(=O)(=O)N(CCO)c2ccccc2CN(C)C/C=C/c2ccc(Cl)cc2)cc1.O=P(O)(O)O )
a: 34

q: Would you kindly share the measured Population Healthy Nuclei (%) for CN1CCN(C(=O)C(C)(C)c2ccc(C(=O)Nc3cn4cc(-c5cc(C(C)(C)C)cc(C(C)(C)C)c5)ccc4n3)cc2)CC1 [T3-CLK-N] ?
a: 30

q: Could you tell me which Population Healthy Nuclei (%) is on file for Cc1ccc(C(=O)Nc2cccc(C(F)(F)F)c2)cc1Nc1nc(-c2cccnc2)nc2c1cnn2C ?
a: 42

q: Query: Population Healthy Nuclei (%); subject: CCn1c(=O)c(-c2ccc(-c3cncs3)cc2Cl)cc2cnc(Nc3ccc(N4CCN(C)CC4)cc3)nc21
a: 79

q: Record request: Population Healthy Nuclei (%) value, item CCOC(=O)c1c(C)[nH]c2ccc3c(c12)CN1CCc2cc(OC)ccc2C1O3 (stereo not given)
a: 75

q: Entry CCOc1cc(C(=O)N2CCC(N3CCN(C)CC3)CC2)ccc1Nc1ncc2c(n1)N(C1CCCC1)c1ccccc1C(=O)N2C has what Population Healthy Nuclei (%)?
a: 50

q: // returns reported Population Healthy Nuclei (%) for input COCC(=O)NC/C=C/c1ccc2ncnc(Nc3ccc(Oc4ccc(C)nc4)c(C)c3)c2c1 [CP-724714]
a: 63

q: Entry CCc1cccc(CC)c1NC(=O)c1nn(C)c2c1CCc1cnc(Nc3ccc(N4CCN(C)CC4)cc3OC)nc1-2 has what Population Healthy Nuclei (%)?
a: 40

q: # lookup: Population Healthy Nuclei (%) of CCc1cccc(CC)c1NC(=O)c1nn(C)c2c1CCc1cnc(Nc3ccc(C(=O)NC4CCN(C)CC4)cc3OC(F)(F)F)nc1-2
a: 70

q: Record request: Population Healthy Nuclei (%) value, item O=C(Nc1ccc(-n2nc(-c3cccnc3)cc2C(F)(F)F)cn1)c1ccc(-c2ccccc2)c(F)c1 [BI 2049]
a: 81

Data origin: ChEMBL document CHEMBL4689842
